Data provenance is patent US9073857B2.

experiment: Particle size by laser particle size distribution analyzer; type: physicochemical; conditions: Effect Example 2; microcrystals of the Examples
Assign fulfilled whenever particle size D90 does not fall below 20 micron; assign not fulfilled whenever it does.

> print(dat)
                                   compound    class.label
1  O=C1CCc2ccc(OCCCCN3CCN(c4cccc(Cl)c4Cl)CC3)cc2N1 [Example 4, aripiprazole]      fulfilled
2  O=C1CCc2ccc(OCCCCN3CCN(c4cccc(Cl)c4Cl)CC3)cc2N1 [Contrastive Example 1, aripiprazole]      fulfilled
3  O=C1CCc2ccc(OCCCCN3CCN(c4cccc(Cl)c4Cl)CC3)cc2N1 [Example 23, aripiprazole]      fulfilled
4  O=C1CCc2ccc(OCCCCN3CCN(c4cccc(Cl)c4Cl)CC3)cc2N1 [Example 2, aripiprazole]      fulfilled
5  O=C1CCc2ccc(OCCCCN3CCN(c4cccc(Cl)c4Cl)CC3)cc2N1 [Example 24, aripiprazole]  not fulfilled
6  O=C1CCc2ccc(OCCCCN3CCN(c4cccc(Cl)c4Cl)CC3)cc2N1 [Example 5, aripiprazole]  not fulfilled
7  O=C1CCc2ccc(OCCCCN3CCN(c4cccc(Cl)c4Cl)CC3)cc2N1 [Example 3, aripiprazole]      fulfilled

###

assay: Particle size by laser particle size distribution analyzer; assay type: physicochemical; conditions: Effect Example 2; microcrystals of the Examples
Entry flag: Fulfilled if particle size D10 reaches 1 micron; Not fulfilled if it does not.

> print(dat)
                                   compound    class.label
1  O=C1CCc2ccc(OCCCCN3CCN(c4cccc(Cl)c4Cl)CC3)cc2N1 [Example 3, aripiprazole]      Fulfilled
2  O=C1CCc2ccc(OCCCCN3CCN(c4cccc(Cl)c4Cl)CC3)cc2N1 [Contrastive Example 1, aripiprazole]      Fulfilled
3  O=C1CCc2ccc(OCCCCN3CCN(c4cccc(Cl)c4Cl)CC3)cc2N1 [Example 2, aripiprazole]      Fulfilled
4  O=C1CCc2ccc(OCCCCN3CCN(c4cccc(Cl)c4Cl)CC3)cc2N1 [Example 23, aripiprazole]      Fulfilled
5  O=C1CCc2ccc(OCCCCN3CCN(c4cccc(Cl)c4Cl)CC3)cc2N1 [Example 4, aripiprazole]      Fulfilled
6  O=C1CCc2ccc(OCCCCN3CCN(c4cccc(Cl)c4Cl)CC3)cc2N1 [Example 5, aripiprazole]  Not fulfilled
